- TARGET_OF_ASSAY: SIRT1 (Homo sapiens, UniProt Q96EB6)
- Sequence (Q96EB6 whole entry): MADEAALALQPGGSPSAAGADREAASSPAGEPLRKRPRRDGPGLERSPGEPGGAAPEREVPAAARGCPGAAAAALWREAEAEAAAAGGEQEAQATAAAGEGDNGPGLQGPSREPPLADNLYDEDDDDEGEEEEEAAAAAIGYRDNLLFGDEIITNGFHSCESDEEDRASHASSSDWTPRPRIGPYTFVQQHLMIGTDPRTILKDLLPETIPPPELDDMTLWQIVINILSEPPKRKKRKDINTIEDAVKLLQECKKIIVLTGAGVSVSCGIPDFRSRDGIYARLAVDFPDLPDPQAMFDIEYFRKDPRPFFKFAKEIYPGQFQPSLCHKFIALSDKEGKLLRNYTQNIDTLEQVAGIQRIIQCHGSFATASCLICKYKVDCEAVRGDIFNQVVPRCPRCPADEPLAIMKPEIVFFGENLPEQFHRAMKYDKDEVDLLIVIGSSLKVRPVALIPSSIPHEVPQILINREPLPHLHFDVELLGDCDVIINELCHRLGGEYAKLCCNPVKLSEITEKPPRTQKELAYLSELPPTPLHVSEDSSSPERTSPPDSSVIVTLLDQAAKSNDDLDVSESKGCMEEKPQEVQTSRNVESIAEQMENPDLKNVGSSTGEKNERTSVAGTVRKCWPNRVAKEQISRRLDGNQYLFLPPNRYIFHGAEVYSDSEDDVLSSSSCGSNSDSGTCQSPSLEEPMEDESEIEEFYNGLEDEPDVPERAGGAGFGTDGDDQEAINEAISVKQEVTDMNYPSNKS
- METHOD_NOTES: SIRT1 mass spectrometry assay (screening for activation); further: test concentration or dose not given here
- Format: biochemical
- MEASUREMENT_CONDITIONS: activation of SIRT1, mass spectrometry
ENDPOINT_LABEL: FOLD ACTIVATION MS

> print(dat)
                                         smi      endpoint.label                test.value
 1  COc1ccc(C(=O)Nc2cccc(-c3nc4ccccc4[nH]3)c2)c(OC)c1  FOLD ACTIVATION MS  B (Fold Activation<250%)
 2  COc1ccc(C(=O)Nc2ccc(-c3nc4cccnc4[nH]3)cc2)cc1OC  FOLD ACTIVATION MS  B (Fold Activation<250%)
 3  COc1cc(C(=O)Nc2ccccc2-c2nc3ccncc3s2)cc(OC)c1OC  FOLD ACTIVATION MS  B (Fold Activation<250%)
 4  CN(C)c1cccc(C(=O)Nc2ccccc2-c2cn3ccccc3n2)c1  FOLD ACTIVATION MS  B (Fold Activation<250%)
 5  COc1cc(NC(=O)c2cccc(-c3nc4ncccc4o3)c2)cc(OC)c1OC  FOLD ACTIVATION MS  A (Fold activation>250%)
 6  Cn1nc(C(C)(C)C)cc1C(=O)Nc1cccc(-c2nc3ccncc3s2)c1  FOLD ACTIVATION MS  B (Fold Activation<250%)
 7  COc1ccc(C(=O)Nc2ccccc2-c2cn3ccccc3n2)cc1OC  FOLD ACTIVATION MS  A (Fold activation>250%)
 8  COc1ccc(C(=O)Nc2cc(C(=O)N3CCNCC3)cc(-c3nc4ncccc4o3)c2)cc1OC  FOLD ACTIVATION MS  B (Fold Activation<250%)
 9  COc1cccc(C(=O)Nc2cccc(-c3nc4ccccc4[nH]3)n2)c1  FOLD ACTIVATION MS  A (Fold activation>250%)
10  Cc1cc(C(=O)Nc2cccc(-c3nc4ccncc4s3)c2)n(C(C)(C)C)n1  FOLD ACTIVATION MS  A (Fold activation>250%)
11  COc1cc(OC)cc(C(=O)Nc2ccccc2-c2nc3ccccc3[nH]2)c1  FOLD ACTIVATION MS  B (Fold Activation<250%)
12       Cc1nc(-c2cccc(Nc3nc4ccccc4s3)c2)cs1  FOLD ACTIVATION MS  B (Fold Activation<250%)
13  CN(C)c1ccc(C(=O)Nc2cccc(-c3nc4ncccc4o3)n2)cc1  FOLD ACTIVATION MS  B (Fold Activation<250%)
14  COc1ccc(C(=O)Nc2ccccc2-c2cn3cc(CN(C)C)sc3n2)cc1OC  FOLD ACTIVATION MS  A (Fold activation>250%)
15  COc1ccc(C(=O)Nc2cc(-c3nc4ccccc4o3)ccn2)cc1OC  FOLD ACTIVATION MS  B (Fold Activation<250%)
16  COc1cc(C)ccc1C(=O)Nc1cccc(-c2nc3ncccc3s2)c1  FOLD ACTIVATION MS  B (Fold Activation<250%)
17  COc1ccc(C(=O)Nc2ccccc2-c2nc3ccccc3[nH]2)cc1OC  FOLD ACTIVATION MS  A (Fold activation>250%)
18  COc1ccc(C(=O)Nc2ccccc2-c2cn3cc(CN4CCNCC4)sc3n2)cc1OC  FOLD ACTIVATION MS  A (Fold activation>250%)
19  COc1cc(C(=O)Nc2cccc(-c3cn4cccnc4n3)c2)cc(OC)c1OC  FOLD ACTIVATION MS  A (Fold activation>250%)
20  CN(C)Cc1cc(NC(=O)c2cccc(N(C)C)c2)cc(-c2nc3ncccc3o2)c1  FOLD ACTIVATION MS  B (Fold Activation<250%)
21  COc1ccc(C(=O)Nc2ccc(-c3nc4ncccc4s3)cc2)cc1OC  FOLD ACTIVATION MS  B (Fold Activation<250%)
22  CN(C)c1cccc(C(=O)Nc2ccccc2-c2nc3ncccc3o2)c1  FOLD ACTIVATION MS  B (Fold Activation<250%)
23  COc1cc(C(=O)Nc2cccc(-c3nc4cnccc4s3)c2)cc(OC)c1OC  FOLD ACTIVATION MS  A (Fold activation>250%)
24      COc1ccc(C(=O)Nc2ccccc2-n2cccc2)cc1OC  FOLD ACTIVATION MS  B (Fold Activation<250%)
25  O=C(Nc1ccc2c(c1)OCO2)Nc1cccc(-c2nc3ncccc3o2)n1  FOLD ACTIVATION MS  B (Fold Activation<250%)

====

- TARGET_OF_ASSAY: SIRT1 (Homo sapiens)
- METHOD_NOTES: SIRT1 mass spectrometry assay (screening for activation)
- Format: biochemical
- MEASUREMENT_CONDITIONS: activation of SIRT1, mass spectrometry
ENDPOINT_LABEL: FOLD ACTIVATION MS

> print(dat)
                                    molecule       target.of.assay      endpoint.label                test.value
 1  COc1ccc(C(=O)Nc2cccc(-c3csc(C)n3)c2)c(OC)c1 [compound 81]  SIRT1 (Homo sapiens)  FOLD ACTIVATION MS  B (Fold Activation<250%)
 2  c1cc(Nc2nc3ccccc3s2)nc(-c2nc3ncccc3o2)c1 [compound 104]  SIRT1 (Homo sapiens)  FOLD ACTIVATION MS  B (Fold Activation<250%)
 3  CN(C)c1cccc(C(=O)Nc2ccc(-c3nc4ncccc4s3)cc2)c1 [compound 196]  SIRT1 (Homo sapiens)  FOLD ACTIVATION MS  B (Fold Activation<250%)
 4  COc1cc(OC)cc(C(=O)Nc2sccc2-c2nc3ccccc3s2)c1 [compound 146]  SIRT1 (Homo sapiens)  FOLD ACTIVATION MS  B (Fold Activation<250%)
 5  COc1ccc(C(=O)Nc2ncccc2-c2nc3ccccc3[nH]2)cc1OC [compound 276]  SIRT1 (Homo sapiens)  FOLD ACTIVATION MS  B (Fold Activation<250%)
 6  O=C(Nc1cccc(-c2nc3ccncc3s2)c1)c1ccc(-c2ccccc2)o1 [compound 241]  SIRT1 (Homo sapiens)  FOLD ACTIVATION MS  B (Fold Activation<250%)
 7  COc1ccc(C(=O)Nc2cccc(-c3nc4cccnc4s3)c2)cc1 [compound 216]  SIRT1 (Homo sapiens)  FOLD ACTIVATION MS  B (Fold Activation<250%)
 8  COc1cc(C(=O)Nc2cc(CN(C)C)cc(-c3nc4ccncc4s3)c2)cc(OC)c1OC [compound 174]  SIRT1 (Homo sapiens)  FOLD ACTIVATION MS  A (Fold activation>250%)
 9  CN(C)c1cccc(C(=O)Nc2ccc(-c3cc4ccccc4[nH]3)cc2)c1 [compound 264]  SIRT1 (Homo sapiens)  FOLD ACTIVATION MS  B (Fold Activation<250%)
10  COc1cc(C)ccc1C(=O)Nc1cccc(-c2nc3cccnc3[nH]2)c1 [compound 182]  SIRT1 (Homo sapiens)  FOLD ACTIVATION MS  A (Fold activation>250%)
11  CN(C)c1cccc(C(=O)Nc2ccc(-c3nc4cccnc4[nH]3)cc2)c1 [compound 180]  SIRT1 (Homo sapiens)  FOLD ACTIVATION MS  B (Fold Activation<250%)
12  COC(=O)c1ccc(-n2cncn2)c(NC(=O)c2ccc(OC)c(OC)c2)c1 [compound 258]  SIRT1 (Homo sapiens)  FOLD ACTIVATION MS  B (Fold Activation<250%)
13  COc1cc(C(=O)Nc2ccccc2-c2cn3ccccc3n2)cc(OC)c1OC [compound 267]  SIRT1 (Homo sapiens)  FOLD ACTIVATION MS  B (Fold Activation<250%)
14  COc1cccc(C(=O)Nc2cccc(-c3nc4cccnc4s3)c2)c1OC [compound 214]  SIRT1 (Homo sapiens)  FOLD ACTIVATION MS  B (Fold Activation<250%)
15  COc1ccc(NC(=O)c2cccc(-c3nc4ncccc4o3)c2)cc1OC [compound 101]  SIRT1 (Homo sapiens)  FOLD ACTIVATION MS  A (Fold activation>250%)
16  CN(C)c1cccc(C(=O)Nc2cccc(-c3nc4ncccc4[nH]3)c2)c1 [compound 183]  SIRT1 (Homo sapiens)  FOLD ACTIVATION MS  A (Fold activation>250%)
17  COc1cccc(C(=O)Nc2cccc(-c3nc4cccnc4s3)c2)c1 [compound 212]  SIRT1 (Homo sapiens)  FOLD ACTIVATION MS  B (Fold Activation<250%)
18  COc1ccc(C(=O)Nc2ccccc2-c2cn3ccccc3n2)c(OC)c1 [compound 265]  SIRT1 (Homo sapiens)  FOLD ACTIVATION MS  B (Fold Activation<250%)
19  COc1ccc(C(=O)Nc2cccc(-c3nc4ncccc4s3)c2)c(OC)c1OC [compound 198]  SIRT1 (Homo sapiens)  FOLD ACTIVATION MS  B (Fold Activation<250%)
20  O=C(Nc1cccc(-c2nc3ccncc3s2)c1)c1cccnc1Cl [compound 222]  SIRT1 (Homo sapiens)  FOLD ACTIVATION MS  B (Fold Activation<250%)
21  O=C(Nc1cccc(-c2nc3ccncc3s2)c1)Nc1ccc2c(c1)OCO2 [compound 99]  SIRT1 (Homo sapiens)  FOLD ACTIVATION MS  A (Fold activation>250%)
22  COc1ccc(C(=O)Nc2ccccc2-c2cn3c(CN4CCNCC4)csc3n2)cc1OC [compound 207]  SIRT1 (Homo sapiens)  FOLD ACTIVATION MS  A (Fold activation>250%)
23  COc1cc(C(=O)Nc2cccc(-c3nc4ncccn4c3C)c2)cc(OC)c1OC [compound 219]  SIRT1 (Homo sapiens)  FOLD ACTIVATION MS  A (Fold activation>250%)
24  COc1ccc(C(=O)Nc2ccc(-c3nc4ccccc4[nH]3)cc2)c(OC)c1 [compound 262]  SIRT1 (Homo sapiens)  FOLD ACTIVATION MS  B (Fold Activation<250%)
25  COc1ccc(C(=O)Nc2cc(C(=O)NCCN(C)C)cc(-c3nc4ncccc4o3)c2)c(OC)c1 [compound 155]  SIRT1 (Homo sapiens)  FOLD ACTIVATION MS  B (Fold Activation<250%)
26  COc1ccc(C(=O)Nc2cccc(-c3nc4ncccc4s3)c2)cc1OC [compound 201]  SIRT1 (Homo sapiens)  FOLD ACTIVATION MS  B (Fold Activation<250%)
27  O=C(Nc1cccc(-c2nc3ccncc3s2)c1)c1ccco1 [compound 221]  SIRT1 (Homo sapiens)  FOLD ACTIVATION MS  B (Fold Activation<250%)
28  O=C(Nc1cccc(-c2nc3ccncc3s2)c1)c1cc(C(F)(F)F)ccc1C(F)(F)F [compound 248]  SIRT1 (Homo sapiens)  FOLD ACTIVATION MS  B (Fold Activation<250%)
29  CN(C)CCNC(=O)c1cc(NC(=O)c2cccc(N(C)C)c2)cc(-c2nc3ncccc3o2)c1 [compound 154]  SIRT1 (Homo sapiens)  FOLD ACTIVATION MS  A (Fold activation>250%)
